Test system: Mo7e cells which endogenously express c-kit
Test Description: Mo7e assay: inhibition of SCF dependent proliferation (MTT)
Format: cell-based
Measurement Setup: Mo7e; Biological data table (selectivity c-kit over PDGFR)
Assay Metric: IC50 (nM)
Give the value, in units of nM, as a plain number.

State its IC50 for this compound: Cc1cc2c(cn1)cc(-c1cc(Nc3cc(-c4nccs4)on3)ccc1C)c(=O)n2C [Compound D9] 141

Check the records and state IC50 for Cc1cc2c(cn1)cc(-c1cc(Nc3nnc(-c4ccccc4)[nH]3)ccc1C)c(=O)n2C [Compound C6] 335

Tell me measured IC50 for Cc1ccc(-c2nnc(Nc3ccc(C)c(-c4cc5cnc(C)cc5n(C)c4=O)c3)o2)cc1 [Compound B1] please. 76

Return value of IC50 for input Cc1cc2c(cn1)cc(-c1cc(Nc3noc(C4CC4)n3)ccc1C)c(=O)n2C [Compound A3] , no commentary. 16

Give recorded IC50. COc1ccc(-c2nc(Nc3ccc(C)c(-c4cc5cnc(C)cc5n(C)c4=O)c3)no2)cc1 [Compound A14] 14

Please report IC50 for the following compound: Cc1cc2c(cn1)cc(-c1cc(Nc3nc(-c4ccccn4)no3)ccc1C)c(=O)n2C [Compound E2] 256

Tell me its IC50 given Cc1cc2c(cn1)cc(-c1cc(Nc3cc(-c4nccs4)no3)ccc1C)c(=O)n2C [Compound F1] as the entry. 111

----------
Tested on: Mo7e cells which endogenously express c-kit
Test Description: Mo7e assay: inhibition of SCF dependent proliferation (MTT)
Format: cell-based
Measurement Setup: Table 1; SCF stimulated Mo7e cells, 48 hours, MTT
Under this convention, Fulfilled denotes IC50 strictly below 200 nM and Not fulfilled denotes IC50 at or above 200 nM.

In the record for Cc1cc2c(cn1)cc(-c1cc(Nc3noc(-c4cnccn4)n3)ccc1C)c(=O)n2C [Compound A70] , is IC50 less than 200 nM? Not fulfilled

Is the reported IC50 for Cc1cc2c(cn1)cc(-c1cc(Nc3nnc(C4CCC4)[nH]3)ccc1C)c(=O)n2C [Compound C8] strictly below 200 nM? Not fulfilled

Just wondering, is IC50 of Cc1cc2c(cn1)cc(-c1cc(Nc3noc(-c4ccccc4C)n3)ccc1C)c(=O)n2C [Compound A16] below 200 nM? Fulfilled

is_below(IC50, 200 nM) for Cc1cc2c(cn1)cc(-c1cc(Nc3noc(-c4cccn4C)n3)ccc1C)c(=O)n2C [Compound A21] ? Fulfilled

Is it true that IC50 reported for Cc1cc2c(cn1)cc(-c1cc(Nc3noc(C4(C)CC4)n3)ccc1C)c(=O)n2C [Compound A34] is less than 200 nM? Fulfilled

API: query returns whether the molecule falls strictly under 200 nM in IC50. Query: Cc1cc2c(cn1)cc(-c1cc(Nc3noc(-c4ccc(Cl)nc4)n3)ccc1C)c(=O)n2C [Compound A1] Fulfilled

Is IC50 of Cc1cc2c(cn1)cc(-c1cc(Nc3nc(-c4ccccc4)no3)ccc1C)c(=O)n2C [Compound E1] strictly below 200 nM? Not fulfilled

Hi there! Is IC50 for Cc1cc2c(cn1)cc(-c1cc(Nc3noc(-c4c(F)cccc4F)n3)ccc1C)c(=O)n2C [Compound A60] below 200 nM, do you know? Fulfilled

I wonder whether Cc1cc2c(cn1)cc(-c1cc(Nc3noc(-c4ccccc4C#N)n3)ccc1C)c(=O)n2C [Compound A38] has IC50 below 200 nM. Can you tell? Not fulfilled

Is IC50 strictly under 200 nM for the entry Cc1ccc(-c2nnc(Nc3ccc(C)c(-c4cc5cnc(C)cc5n(C)c4=O)c3)o2)cc1 [Compound B1] ? Fulfilled

Take the molecule Cc1cc2c(cn1)cc(-c1cc(Nc3nsc(-c4ccccc4)n3)ccc1C)c(=O)n2C [Compound G1] and say whether its IC50 is less than 200 nM. Not fulfilled

Below 200 nM on IC50? Entry Cc1cc2c(cn1)cc(-c1cc(Nc3noc([C@@]4(C)CCCO4)n3)ccc1C)c(=O)n2C [Compound A97] Fulfilled

Take the molecule Cc1cc2c(cn1)cc(-c1cc(Nc3nnc(-c4ccccc4)[nH]3)ccc1C)c(=O)n2C [Compound C6] and say whether its IC50 is less than 200 nM. Not fulfilled

I wonder whether Cc1cc2c(cn1)cc(-c1cc(Nc3noc(C4CC(O)C4)n3)ccc1C)c(=O)n2C (stereo not drawn) [Compound A83] has IC50 below 200 nM. Can you tell? Not fulfilled
